- system: LRRK2 G2019S enzyme (Homo sapiens (Human), UniProt Q5S007, G2019S)
- Sequence (Q5S007 whole entry G2019S): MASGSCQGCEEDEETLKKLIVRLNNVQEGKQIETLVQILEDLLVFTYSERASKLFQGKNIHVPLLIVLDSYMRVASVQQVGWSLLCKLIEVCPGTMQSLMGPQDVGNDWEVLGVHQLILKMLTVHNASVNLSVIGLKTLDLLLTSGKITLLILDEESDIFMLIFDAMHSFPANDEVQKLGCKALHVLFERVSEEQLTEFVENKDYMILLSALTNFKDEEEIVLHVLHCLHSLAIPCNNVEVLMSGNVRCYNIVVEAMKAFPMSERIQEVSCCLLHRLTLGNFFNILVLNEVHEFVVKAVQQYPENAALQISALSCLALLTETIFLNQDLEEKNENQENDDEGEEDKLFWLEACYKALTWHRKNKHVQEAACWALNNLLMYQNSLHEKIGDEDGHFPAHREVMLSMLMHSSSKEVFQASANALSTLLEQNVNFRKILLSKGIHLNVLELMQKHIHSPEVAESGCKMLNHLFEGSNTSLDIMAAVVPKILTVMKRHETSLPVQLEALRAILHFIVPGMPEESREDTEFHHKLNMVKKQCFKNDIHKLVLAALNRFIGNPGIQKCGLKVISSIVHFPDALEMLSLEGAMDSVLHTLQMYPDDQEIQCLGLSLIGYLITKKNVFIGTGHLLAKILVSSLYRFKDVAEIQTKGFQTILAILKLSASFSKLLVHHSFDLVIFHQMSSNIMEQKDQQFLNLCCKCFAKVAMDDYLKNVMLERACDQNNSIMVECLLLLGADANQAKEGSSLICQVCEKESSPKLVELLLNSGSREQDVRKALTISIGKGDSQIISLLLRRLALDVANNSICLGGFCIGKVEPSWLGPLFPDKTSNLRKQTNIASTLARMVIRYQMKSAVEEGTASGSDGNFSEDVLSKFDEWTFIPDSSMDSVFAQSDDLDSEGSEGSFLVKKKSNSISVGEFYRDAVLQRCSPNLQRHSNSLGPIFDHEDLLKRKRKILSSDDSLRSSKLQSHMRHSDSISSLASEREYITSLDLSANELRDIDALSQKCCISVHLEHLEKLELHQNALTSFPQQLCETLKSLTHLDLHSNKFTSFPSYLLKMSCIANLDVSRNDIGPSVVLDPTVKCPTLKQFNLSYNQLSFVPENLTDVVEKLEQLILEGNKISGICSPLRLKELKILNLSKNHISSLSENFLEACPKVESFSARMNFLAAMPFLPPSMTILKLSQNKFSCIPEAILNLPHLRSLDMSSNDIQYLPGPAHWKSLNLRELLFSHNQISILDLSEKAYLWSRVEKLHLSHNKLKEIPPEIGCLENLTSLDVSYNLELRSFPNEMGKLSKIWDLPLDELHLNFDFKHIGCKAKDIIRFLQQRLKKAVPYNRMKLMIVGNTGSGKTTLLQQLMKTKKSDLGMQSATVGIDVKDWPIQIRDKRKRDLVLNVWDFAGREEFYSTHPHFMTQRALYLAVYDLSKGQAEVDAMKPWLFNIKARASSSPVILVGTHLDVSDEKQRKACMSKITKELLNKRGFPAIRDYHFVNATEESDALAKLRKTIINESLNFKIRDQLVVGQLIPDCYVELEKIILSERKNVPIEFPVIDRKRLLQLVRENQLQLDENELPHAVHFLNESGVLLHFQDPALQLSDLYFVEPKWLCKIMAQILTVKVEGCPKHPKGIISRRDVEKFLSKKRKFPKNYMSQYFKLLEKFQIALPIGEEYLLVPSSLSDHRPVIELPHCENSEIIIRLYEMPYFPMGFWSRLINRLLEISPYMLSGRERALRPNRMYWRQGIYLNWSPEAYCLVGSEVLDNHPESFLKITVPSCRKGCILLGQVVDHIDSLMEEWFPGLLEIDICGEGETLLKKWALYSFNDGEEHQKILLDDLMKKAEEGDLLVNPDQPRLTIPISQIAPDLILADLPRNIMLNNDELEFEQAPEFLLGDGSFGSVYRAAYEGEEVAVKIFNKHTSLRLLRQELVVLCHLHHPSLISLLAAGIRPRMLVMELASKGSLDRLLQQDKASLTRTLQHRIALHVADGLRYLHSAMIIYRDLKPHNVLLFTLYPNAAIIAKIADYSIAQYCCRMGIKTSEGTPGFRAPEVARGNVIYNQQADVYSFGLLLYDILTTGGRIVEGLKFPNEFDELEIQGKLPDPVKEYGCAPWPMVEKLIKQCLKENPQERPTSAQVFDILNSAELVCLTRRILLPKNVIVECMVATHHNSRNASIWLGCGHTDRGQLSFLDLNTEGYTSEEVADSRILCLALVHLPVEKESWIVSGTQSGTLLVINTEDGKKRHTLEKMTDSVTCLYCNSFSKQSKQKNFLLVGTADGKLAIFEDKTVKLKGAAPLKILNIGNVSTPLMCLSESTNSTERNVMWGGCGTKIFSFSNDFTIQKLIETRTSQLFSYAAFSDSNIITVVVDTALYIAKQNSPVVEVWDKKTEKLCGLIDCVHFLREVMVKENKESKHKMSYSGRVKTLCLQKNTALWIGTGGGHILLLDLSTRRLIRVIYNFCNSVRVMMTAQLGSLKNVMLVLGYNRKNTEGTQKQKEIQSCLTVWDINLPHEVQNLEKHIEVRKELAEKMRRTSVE
- protocol: LRRK2 G2019S TR-FRET biochemical kinase assay (LRRKtide substrate)
- condition.parameters: Table D-4; 5 nM LRRK2, 134 μM ATP, 60 minute reaction, 23° C.
Quick reference: IC50 of the listed items.
outcome.measure: IC50

- CNc1nc(Nc2cnn(C3CCC(n4ccnn4)C3)c2C)ncc1C(F)(F)F [Compound D-112]: < 30 nM
- CCNc1nc(Nc2cn(C(F)(F)C(N)=O)nc2Cl)ncc1C(F)(F)F [Compound D-164]: < 30 nM
- CNc1nc(Nc2cn(CCOC(F)F)nc2C)ncc1C(F)(F)F [Compound D-10]: 30 to 60 nM
- CNc1nc(Nc2cn(C3CCc4nnc(C)n4C3)nc2C)ncc1C(F)(F)F [Compound D-8]: > 60 nM
- CCNc1nc(Nc2cnn([C@H]3C[C@H](N4CC[C@H](F)C4)C3)c2C)ncc1C(F)(F)F [Compound D-195]: < 30 nM
- CNc1nc(Nc2cnn(C3CCC(n4nccn4)C3)c2C)ncc1C(F)(F)F [Compound D-114]: < 30 nM
- CCNc1nc(Nc2cnn([C@H]3C[C@@H](n4ncnc4C(F)(F)F)C3)c2C)ncc1C(F)(F)F [Compound D-118]: < 30 nM
- CCNc1nc(Nc2cnn([C@H]3CCCn4ccnc43)c2C)ncc1C(F)(F)F [Compounds D-170]: < 30 nM
- CCNc1nc(Nc2cnn([C@H]3C[C@H](n4cncn4)C3)c2C)ncc1C(F)(F)F [Compound D-117]: < 30 nM
- CCNc1nc(Nc2cn([C@H]3C[C@H](OC(F)F)C3)nc2C)ncc1C(F)(F)F [Compound D-138]: < 30 nM
- CCNc1nc(Nc2cnn([C@]3(C)CCn4ccnc43)c2C)ncc1C(F)(F)F [Compounds D-206]: < 30 nM
- CNc1nc(Nc2cn(C3CCC(n4ccnn4)C3)nc2C)ncc1C(F)(F)F [Compound D-69]: < 30 nM
- CNc1nc(Nc2cnn([C@H]3CCC(n4nccn4)C3)c2C)ncc1C(F)(F)F (stereo partly drawn) [Compounds D-149]: 30 to 60 nM
- CCNc1nc(Nc2cnn([C@H]3C[C@@H](N4CC[C@@H](F)C4)C3)c2C)ncc1C(F)(F)F [Compound D-198]: < 30 nM
- CNc1nc(Nc2cn([C@H]3C[C@H](OC(F)F)C3)nc2C)ncc1C(F)(F)F [Compound D-26]: < 30 nM
- CCNc1nc(Nc2cn([C@H]3CCc4ncsc43)nc2C)ncc1C(F)(F)F [Compounds D-86]: < 30 nM
- CCNc1nc(Nc2cn(C3CCCn4ccnc43)nc2C)ncc1C(F)(F)F [Compound D-92]: 30 to 60 nM
- CNc1nc(Nc2cn(C3CCC(n4ccnn4)C3)nc2C)ncc1C(F)(F)F [Compound D-125]: 30 to 60 nM
- CNc1nc(Nc2cnn([C@H]3C[C@@H](n4cccn4)C3)c2C)ncc1C(F)(F)F [Compound D-49]: < 30 nM
- CCNc1nc(Nc2cnn(C3CCn4nccc43)c2C)ncc1C(F)(F)F [Compound D-65]: < 30 nM
- CNc1nc(Nc2cn([C@H]3C[C@H](COC(F)F)C3)nc2C)ncc1C(F)(F)F [Compound D-32]: < 30 nM
- CNc1nc(Nc2cn(C3(C)CCn4ccnc43)nc2C)ncc1C(F)(F)F [Compounds D-189]: < 30 nM
- CNc1nc(Nc2cn(C3CCn4ccnc43)nc2C)ncc1C(F)(F)F (single isomer, unassigned) [Compound D-4]: < 30 nM
- CCNc1nc(Nc2cnn([C@H]3C[C@H](N4CCOCC4)C3)c2C)ncc1C(F)(F)F [Compound D-153]: < 30 nM
- CCNc1nc(Nc2cn(C3CCc4c(C)noc43)nc2C)ncc1C(F)(F)F [Compound D-79]: < 30 nM
- CNc1nc(Nc2cnn([C@@H]3CCC(n4nccn4)C3)c2C)ncc1C(F)(F)F (stereo partly drawn) [Compounds D-141]: < 30 nM
- CCNc1nc(Nc2cnn([C@H]3C[C@@H](N4CC[C@H](F)C4)C3)c2C)ncc1C(F)(F)F [Compound D-196]: < 30 nM
- CCNc1nc(Nc2cn([C@H]3CCn4nccc43)nc2C)ncc1C(F)(F)F [Compounds D-122]: < 30 nM
- Cc1c(Nc2ncc(C(F)(F)F)c(NCC(F)F)n2)cnn1[C@H]1C[C@H](n2nccn2)C1 [Compound D-75]: < 30 nM
- CNc1nc(Nc2cnn([C@@H]3CCn4cncc43)c2C)ncc1C(F)(F)F [Compounds D-121]: < 30 nM
- CNc1nc(Nc2cnn([C@H]3C[C@H](n4ncnc4C)C3)c2C)ncc1C(F)(F)F [Compound D-109]: < 30 nM
- CNc1nc(Nc2cnn([C@H]3CCC(n4ccnn4)C3)c2C)ncc1C(F)(F)F (stereo partly drawn) [Compounds D-175]: < 30 nM
- CNc1nc(Nc2cnn(CCOC(F)F)c2C)ncc1C(F)(F)F [Compound D-9]: < 30 nM
